measured on: tachykinin receptor (Cavia porcellus, UniProt P30547)
Construct: from tissue; host or cells: guinea pig trachea, in vivo
Sequence (P30547 whole entry): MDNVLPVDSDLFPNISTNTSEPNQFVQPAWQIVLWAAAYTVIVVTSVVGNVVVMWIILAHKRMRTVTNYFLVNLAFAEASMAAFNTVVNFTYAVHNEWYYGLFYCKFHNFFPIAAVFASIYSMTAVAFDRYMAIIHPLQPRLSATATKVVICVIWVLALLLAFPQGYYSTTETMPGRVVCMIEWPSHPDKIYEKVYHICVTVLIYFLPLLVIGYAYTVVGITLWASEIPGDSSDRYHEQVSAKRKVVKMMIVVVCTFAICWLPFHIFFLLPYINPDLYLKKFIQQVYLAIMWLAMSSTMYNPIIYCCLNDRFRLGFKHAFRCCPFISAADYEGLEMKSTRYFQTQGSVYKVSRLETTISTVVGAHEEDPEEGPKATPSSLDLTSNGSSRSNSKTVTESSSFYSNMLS
test protocol: Tachykinin receptor antagonistic effect: capsaicin-induced increase in blood vessel permeability, trachea
Format: in vivo
experimental context: guinea pig, iv, read-out: ED50 Guinea pig trachea
observation type: ED50
Value and unit, in that order.

Example results:
input: Which ED50 value is on record for CON=C(C(=O)N1CCN(C)CC1)C(C)=NOCc1ccccc1Cl [Compound b-251] ?
output: 0.017 mg/kg

input: Which ED50 value is on record for CON=C(C)C(=NOCc1ccccc1Cl)C(=O)N1CCC(NC(C)=O)CC1 [Compound M-11] ?
output: 0.024 mg/kg

input: Which ED50 value is on record for C=CCON=C(C(=O)N1CCN(C)CC1)C(C)=NOCc1ccccc1 [b-180] ?
output: 0.054 mg/kg

input: Which ED50 value is on record for CON=C(C(=O)N1CCOCC1)C(C)=NOCc1ccccc1 [Compound W-176] ?
output: 0.145 mg/kg

input: Which ED50 value is on record for C=CCON=C(C)C(=NOCc1ccc(Cl)c(Cl)c1)C(=O)N1CCOCC1 [Compound W-96] ?
output: 0.04 mg/kg

Now let's try a different one.
input: Which ED50 value is on record for C=CCON=C(C)C(=NOCc1ccccc1Cl)C(=O)N1CCC(NC(C)=O)CC1 [Compound M-86] ?
output: 0.085 mg/kg
